Target: SARS-CoV-2 Omicron XBB.1.5 RBD (SARS-CoV-2 Omicron XBB.1.5, F490S)
Assay: BLI
Measured Kd accompanies every entry in the list below.

BINDER: C807 (antibody, V domains shown) VH: QVQLVQSGAEAKKPGSSVKVSCKASGGTFKSYIINWVRQAPGQGLEWMGEIIPIFGTANYAQKFQGRVTSTADESTSTAYMELSSLKSEDTAVYYCARGRGYSGYGASYYFDYWGQGTLVTVSS VL: QSVLTQPPSVSGAPGQRVTISCTGSNSNIGAGYDVHWYQQLPGTAPKLLIYANSNRPSGVPDRFSGSKSGTSASLAITGLQAEDEADYYCQSYDSGLSGSVFGGGTKLTVL
Kd: < 4.5 nM

BINDER: BD56-597 (antibody, V domains shown) VH: QVQLVQSGAEVKKPGSSVKVSCKASGGTFSTYPISWVRQAPGQGVEWMGAIIPILGTTDYAQIFQGRVTITADKSTSTAYMELSSLRPEDTAVYYCARERGYSGYGAAYYFDSWGQGTLVTVSS VL: QSVLTQPPSVSGAPGQRVTISCTGSDSNIGAGYDVHWYQQLPGTAPKLLIYVNINRPSGVPDRFSGSKSATSASLAITGLQAEDEADYYCQSYDSSLSGVVFGGGTKLTVL
Kd: < 4.5 nM

BINDER: C092 (antibody, V domains shown) VH: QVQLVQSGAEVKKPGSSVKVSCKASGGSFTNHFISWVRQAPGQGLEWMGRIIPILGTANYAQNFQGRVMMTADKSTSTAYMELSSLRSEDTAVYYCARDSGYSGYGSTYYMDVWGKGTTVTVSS VL: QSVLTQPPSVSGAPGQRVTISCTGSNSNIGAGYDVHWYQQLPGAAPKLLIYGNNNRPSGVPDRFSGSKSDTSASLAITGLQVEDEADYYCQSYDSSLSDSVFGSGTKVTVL
Kd: < 4.5 nM

BINDER: ZL525 (antibody, V domains shown) V domain 1: QVQLVQSGAEVKKPGSSMKVSCQASGGTFSSHPISWIRQAPGQGLEWMGRIIPIAGMTDYGQKFQGRITITADTSTSTSYVELRGLRSQDTAFYYCAKDVGYSDYGSAYYFHTWGQGTLITVSS V domain 2: QSVLTQPPSVSGAPGQRVTISCTGSNSNIGAGYDVHWYQQLPGTAPKLLIYRNNKRPSGVPDRFSGSKSDTSASLAITGLQAEDEAHYYCQSFDSSLGGSLFGGGTKLAVL
Kd: < 0.71 nM

Next item in the queue.
Consider the binder shown here: BD56-104 (antibody, V domains shown) VH: QVQLVQSGAEVKTPGSSVKVSCKASGGTFGSHSITWVRQAPGQGLEWMGRVIPILGIPDFAESFQGRVAITADRSTSTAHMELSRLRSEDTAVYYCARDVGYSGSGSSNYFDSWGQGTLVTVSS VL: QSVLTQPPSVSGAPGQRVTISCTGSNSNIGAGYDVHWYRQLPGTAPKLLIYVNNNRPSGVPDRFSGSRSGASASLAITGLQAEDEAEYYCQSYDSSLSGSIFGGGTKLTVL What is its recorded Kd? < 4.5 nM
